Test system: mu opiate receptor (MOR)
Procedure text: MOR agonist activity using [35S]GTPγS binding assay in striatal membranes
Format: biochemical
Test context: Series C-2; 0.1 μM compound; [35S]GTPγS binding to Gαo, striatal membranes
Use 200% as the dividing line for MOR agonist activity, percent [35S]GTPγS binding at the stated compound concentration, with the line itself on the class 1 side and lower values as class 0.

Compound	Class name
CS(=O)(=O)c1ccc(S(=O)(=O)N2CCOC23CCNCC3)cc1 [Compound C0116M]	class 1
CC(=O)c1ccc(S(=O)(=O)N2CCC3(CC2)NCCS3)cc1 [Compound C0060]	class 0
O=[N+]([O-])c1ccc(S(=O)(=O)N2CCC3(CC2)NCCS3)cc1 [Compound C0044]	class 0
C=CCN1CCC2(CC1)OCCN2S(=O)(=O)c1ccc(OC)cc1 [Compound C0091M]	class 1
COc1ccc(S(=O)(=O)N2CCOC23CCN(C(=O)OC(C)(C)C)CC3)cc1 [Compound C0043]	class 0
CC(=O)N1CCSC12CCN(S(=O)(=O)c1ccc([N+](=O)[O-])cc1)CC2 [Compound C0050]	class 0
CC(=O)c1ccc(S(=O)(=O)N2CCOC23CCNCC3)cc1 [Compound C0046]	class 1
COc1ccc(S(=O)(=O)N2CCOC23CCN(C)CC3)cc1 [Compound C0088M]	class 1
Cc1ccc(S(=O)(=O)N2CCOC23CCN(CC2CC2)CC3)cc1 [Compound C0134M]	class 0
O=[N+]([O-])c1ccc(S(=O)(=O)N2CCC3(CC2)NCCO3)cc1 [Compound C0040]	class 0
CC(=O)c1ccc(S(=O)(=O)N2C(Cc3c[nH]cn3)C(=O)NC23CCNCC3)cc1 (centres unmarked) [Compound C0119M]	class 0
COc1ccc(NC(=O)N2CCC3(CC2)NCCO3)cc1 [Compound C0151M-2]	class 1
COc1ccc(S(=O)(=O)N2CCC3(CC2)NCCC(=O)N3)cc1 [Compound C0142M]	class 0
CC(=O)c1ccc(S(=O)(=O)N2CCOC23CCN(C)CC3)cc1 [Compound C0093M]	class 0
COc1ccc(S(=O)(=O)N2CCOC23CCCNC3)cc1 (centres unmarked) [Compound C0145M-3]	class 0
O=C1CN(Cc2ccccc2)C2(CCNCC2)N1 [Compound C0115M]	class 0
CC(=O)c1ccc(S(=O)(=O)N2CCOC23CCN(CC(=O)O)CC3)cc1 [Compound C0100M]	class 0
CCOC(=O)CN1CCC2(CC1)OCCN2S(=O)(=O)c1ccc(C(C)=O)cc1 [Compound C0099M]	class 0
COc1ccc(S(=O)(=O)N2CCOC23CCN(CC2CC2)CC3)cc1 [Compound C0090M]	class 1
COc1ccc(S(=O)(=O)N2CCOC23CCN(C(C)C)CC3)cc1 [Compound C0133M]	class 0
O=[N+]([O-])c1ccc(S(=O)(=O)N2CCC3(CC2)NCCCO3)cc1 [Compound C0045]	class 0
C=CCN1CCC2(CC1)OCCN2S(=O)(=O)c1ccc(C(C)=O)cc1 [Compound C0096M]	class 0
COc1ccc(S(=O)(=O)N2CCOC23CCNCC3)cc1 [Compound C0027]	class 1
O=S(=O)(c1ccccc1Oc1ccccc1)N1CCC2(CC1)NCCO2 [Compound C0149M-2]	class 1
CC(=O)c1ccc(S(=O)(=O)N2CC(CN(C)C)OC23CCNCC3)cc1 (centres unmarked) [Compound C0118M]	class 0
CC(=O)c1ccc(S(=O)(=O)N2CC(=O)NC23CCNCC3)cc1 [Compound C0086M]	class 1
CC(=O)c1ccc(S(=O)(=O)N2CCC3(CC2)NC(=O)CO3)cc1 [Compound C0087M]	class 1
CN1CCC2(CC1)NC(=O)CN2Cc1ccccc1 [Compound C0104M]	class 0
CC(=O)c1ccc(S(=O)(=O)N2CCOC23CCN(CC2CC2)CC3)cc1 [Compound C0095M]	class 0
CCc1ccc(S(=O)(=O)N2CCOC23CCN(CC2CC2)CC3)cc1 [Compound C0135M]	class 0
CS(=O)(=O)c1ccc(S(=O)(=O)N2CCOC23CCN(CC2CC2)CC3)cc1 [Compound C0126M]	class 0
CCN1CCC2(CC1)OCCN2S(=O)(=O)c1ccc(C(C)=O)cc1 [Compound C0094M]	class 0
COc1ccc(S(=O)(=O)N2CCC3(NCCO3)C3CCCCC32)cc1 (centres unmarked) [Compound C0144M-2]	class 0

====

Experimental target: biotinylated pentapeptide (Bn-VAKGL) of SEQ ID NO: 1 (Homo sapiens, UniProt P21333)

Molecule	Unit abbreviation	IC50
O=C1CC[C@@]2(O)[C@H]3Cc4ccc(O)c5c4[C@@]2(CCN3CC2CC2)[C@H]1O5 [Naltrexone]	nM	0.043

====

Test system: mu opiate receptor (MOR)
Procedure text: MOR agonist activity using [35S]GTPγS binding assay in striatal membranes
Format: biochemical
Test context: Series B; 0.1 μM compound, relative to DAMGO

Compound	Experimental target	Unit abbreviation	% DAMGO (0.1 μM)
COc1ccccc1CC(O)CC1c2c(cc3c(c2OC)OCO3)CCN1C (centres unmarked) [Compound B0030]	mu opiate receptor (MOR)	%	62.6
COc1cccc(CC(=O)CC2c3c(cc4c(c3OC)OCO4)CC[N+]2(C)C)c1OC (centres unmarked) [Compound B0038]	mu opiate receptor (MOR)	%	94.2
COc1ccc(C(=O)CC2c3c(cc4c(c3OC)OCO4)CC[N+]2(C)C)cc1OC (centres unmarked) [Compound B0026]	mu opiate receptor (MOR)	%	88.8
COc1cc(OC)cc(C(=O)CC2c3c(cc4c(c3OC)OCO4)CC[N+]2(C)C)c1 (centres unmarked) [Compound B0035]	mu opiate receptor (MOR)	%	109.8
COc1c2c(cc3c1C(CC(=O)/C=C/c1ccc(Cl)cc1)[N+](C)(C)CC3)OCO2 (centres unmarked) [Compound B0019]	mu opiate receptor (MOR)	%	59.7
COc1ccc(CCC(O)CC2c3c(cc4c(c3OC)OCO4)CC[N+]2(C)C)cc1 (centres unmarked) [Compound B0049]	mu opiate receptor (MOR)	%	102.8
COCOc1ccc(CCC(=O)CC2c3c(cc4c(c3OC)OCO4)CC[N+]2(C)C)cc1 (centres unmarked) [Compound B0040]	mu opiate receptor (MOR)	%	93.2
COc1c2c(cc3c1C(CC(=O)CCc1ccc(Cl)cc1)[N+](C)(C)CC3)OCO2 (centres unmarked) [Compound B0017]	mu opiate receptor (MOR)	%	58.9
COc1ccc(CCC(=O)CC2c3c(cc4c(c3OC)OCO4)CC[N+]2(C)C)cc1 (centres unmarked) [Compound B0016]	mu opiate receptor (MOR)	%	99.2
COc1cc(C(=O)CC2c3c(cc4c(c3OC)OCO4)CC[N+]2(C)C)cc(OC)c1OC (centres unmarked) [Compound B0037]	mu opiate receptor (MOR)	%	76.5
COc1ccccc1CC(O)CC1c2c(cc3c(c2OC)OCO3)CC[N+]1(C)C (centres unmarked) [Compound B0032]	mu opiate receptor (MOR)	%	115.0
COc1c2c(cc3c1C(CC(=O)c1ccc(O)c(C)c1)[N+](C)(C)CC3)OCO2 (centres unmarked) [Compound B0002]	mu opiate receptor (MOR)	%	100.0
COc1ccc(C(=O)CC2c3c(cc4c(c3OC)OCO4)CC[N+]2(C)C)cc1 (centres unmarked) [Compound B0024]	mu opiate receptor (MOR)	%	93.2
COc1ccc(CCC(O)CC2c3c(cc4c(c3OC)OCO4)CCN2C)cc1 (centres unmarked) [Compound B0048]	mu opiate receptor (MOR)	%	104.8

====

Experimental target: FLNA pentapeptide of SEQ ID NO: 1 (Bn-VAKGL) (Homo sapiens)
Procedure text: FITC-NLX-based FLNA screening assay (inhibition of FITC-naloxone binding to Bn-VAKGL on streptavidin plates)
Test context: FLNA-binding compound 0.01 μM; 10 nM FITC-NLX; read-out: Percent Binding Inhibition

Compound	inhibition at 0.01 µM [%]
COc1ccc(OCC(O)Cn2ccc3ccccc32)cc1 (stereo not drawn) [Compound A0077]	41.1
CC(=O)c1ccc(S(=O)(=O)N2CC(CN(C)C)OC23CCN(CC2CC2)CC3)cc1 (stereo not drawn) [Compound C0128M]	46.5
CCOC(=O)CN1CCC2(CC1)OCCN2S(=O)(=O)c1ccc(C(C)=O)cc1 [Compound C0099M]	46.9
OC(COc1cccc(F)c1)CN1CCc2ccccc2C1 (stereo not drawn) [Compound A0055]	28.1
CC1CCC(C(C)C)C(OCC(O)CN2CCCCCCC2)C1 (stereo not drawn) [Compound A0014]	33.8
CC1CCC(C(C)C)C(OCC(O)CN2CCCN(C)CC2)C1 (stereo not drawn) [Compound A0010]	36
CC(=O)c1ccc(S(=O)(=O)N2CCOC23CCN(CC(=O)O)CC3)cc1 [Compound C0100M]	52.2
O=S(=O)(c1ccc(F)c(F)c1)N1CCC2(CC1)OCCN2S(=O)(=O)c1ccc(F)c(F)c1 [Compound C0072]	28.4
CC1CCC(C(C)C)C(OCC(O)CN2CCN(CCc3ccccc3)CC2)C1 (stereo not drawn) [Compound A0020]	37.8

The origin of these recorded values is patent US10363239B2.
